Target: CYP2D6 (Homo sapiens, UniProt P10635)
Sequence (P10635 whole entry): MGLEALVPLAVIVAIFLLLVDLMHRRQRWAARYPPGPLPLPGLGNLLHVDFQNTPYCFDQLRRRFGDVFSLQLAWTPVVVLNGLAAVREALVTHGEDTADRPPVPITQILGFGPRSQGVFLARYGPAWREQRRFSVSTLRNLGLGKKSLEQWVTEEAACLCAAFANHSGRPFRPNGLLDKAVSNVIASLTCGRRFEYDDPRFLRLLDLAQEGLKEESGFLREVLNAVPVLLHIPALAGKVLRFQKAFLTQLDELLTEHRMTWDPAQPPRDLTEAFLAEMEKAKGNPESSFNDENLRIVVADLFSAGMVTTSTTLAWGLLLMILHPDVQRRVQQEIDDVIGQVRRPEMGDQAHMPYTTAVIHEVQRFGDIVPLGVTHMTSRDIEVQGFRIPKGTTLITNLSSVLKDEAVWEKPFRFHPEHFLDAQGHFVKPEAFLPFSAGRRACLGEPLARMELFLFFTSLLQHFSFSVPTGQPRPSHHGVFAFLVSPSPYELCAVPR
Experiment: Inhibition of CYP2D6 at 10 uM
Assay type: ADME
QUANTITY_KIND: inhibition at 10 µM
Give the value; after it, write the unit.

Ask: Quick check: inhibition at 10 µM of O=C(/C=C/c1ccc2c(ccn2S(=O)(=O)c2ccccc2)c1)NO ?
Result: 31%

----------
Recorded IC50 values for a group of compounds are listed next.
Target: Histone deacetylase 1 (Homo sapiens, UniProt Q13547)
Sequence (Q13547 whole entry): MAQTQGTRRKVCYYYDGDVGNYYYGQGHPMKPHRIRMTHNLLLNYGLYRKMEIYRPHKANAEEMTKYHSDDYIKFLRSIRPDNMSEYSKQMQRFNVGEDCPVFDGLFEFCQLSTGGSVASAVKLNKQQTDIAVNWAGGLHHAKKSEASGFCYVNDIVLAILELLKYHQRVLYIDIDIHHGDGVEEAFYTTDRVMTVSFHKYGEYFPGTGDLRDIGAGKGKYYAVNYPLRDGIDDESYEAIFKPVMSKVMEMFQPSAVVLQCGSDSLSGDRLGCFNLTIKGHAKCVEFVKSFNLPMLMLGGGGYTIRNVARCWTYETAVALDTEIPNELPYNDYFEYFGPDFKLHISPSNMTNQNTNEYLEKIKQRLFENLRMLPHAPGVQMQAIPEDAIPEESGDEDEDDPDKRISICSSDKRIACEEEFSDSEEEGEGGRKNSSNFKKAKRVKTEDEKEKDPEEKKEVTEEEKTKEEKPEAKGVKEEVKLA
Assay: Inhibition of human recombinant HDAC1 after 30 mins by fluorometric assay
Report the figure in nM without appending any unit label.

// below: answered compounds
> print(dat)
                  compound.structure.string  recorded.number
1  COc1ccc(S(=O)(=O)n2ccc3cc(/C=C/C(=O)NO)ccc32)cc1              125
2      O=C(/C=C/c1ccc2c(ccn2Cc2ccccc2)c1)NO             71.2
3  O=C(/C=C/c1ccc2c(ccn2S(=O)(=O)c2ccc([N+](=O)[O-])cc2)c1)NO             69.9
4  O=C(/C=C/c1ccc2c(ccn2S(=O)(=O)c2ccc(F)cc2)c1)NO             33.2

Now examine the next entry.
Ask: Quick check: IC50 of COc1ccc(S(=O)(=O)n2ccc3cc(/C=C/C(=O)NO)ccc32)cc1OC ?
Result: 18.1

----------
Biological target: CYP1A2 (Homo sapiens, UniProt P05177)
Sequence (P05177 whole entry): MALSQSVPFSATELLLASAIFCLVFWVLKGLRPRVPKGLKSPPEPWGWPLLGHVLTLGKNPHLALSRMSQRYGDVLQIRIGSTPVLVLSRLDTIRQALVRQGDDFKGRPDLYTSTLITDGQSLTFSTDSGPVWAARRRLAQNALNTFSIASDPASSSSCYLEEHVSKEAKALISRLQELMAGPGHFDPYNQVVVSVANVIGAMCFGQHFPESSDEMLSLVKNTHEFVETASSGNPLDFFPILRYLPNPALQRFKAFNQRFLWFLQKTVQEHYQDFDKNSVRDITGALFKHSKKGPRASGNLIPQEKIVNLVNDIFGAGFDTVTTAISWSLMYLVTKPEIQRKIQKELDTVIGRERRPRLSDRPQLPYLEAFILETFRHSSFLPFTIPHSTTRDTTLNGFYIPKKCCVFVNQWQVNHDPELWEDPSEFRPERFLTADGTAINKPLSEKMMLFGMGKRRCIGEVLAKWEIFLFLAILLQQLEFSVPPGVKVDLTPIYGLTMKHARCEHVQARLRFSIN
Assay: Inhibition of CYP1A2 at 10 uM
Assay type: ADME
QUANTITY_KIND: inhibition at 10 µM (%)
Report the figure in % without appending any unit label.

Ask: Quick check: inhibition at 10 µM of O=C(/C=C/c1ccc2c(ccn2S(=O)(=O)c2ccccc2)c1)NO ?
Result: 51

----------
Test: Half life in Sprague-Dawley rat at 2 mg/kg, iv
Type: ADME, organism-based
Design: dose 2 mg/kg, route intravenous
Settings: in vivo
QUANTITY_KIND: half-life (h)
Report the figure in h without appending any unit label.

Ask: Quick check: half-life of O=C(/C=C/c1ccc2c(ccn2S(=O)(=O)c2ccccc2)c1)NO ?
Result: 2.6

----------
Biological target: UniProt:Q92769
Sequence (Q92769 whole entry): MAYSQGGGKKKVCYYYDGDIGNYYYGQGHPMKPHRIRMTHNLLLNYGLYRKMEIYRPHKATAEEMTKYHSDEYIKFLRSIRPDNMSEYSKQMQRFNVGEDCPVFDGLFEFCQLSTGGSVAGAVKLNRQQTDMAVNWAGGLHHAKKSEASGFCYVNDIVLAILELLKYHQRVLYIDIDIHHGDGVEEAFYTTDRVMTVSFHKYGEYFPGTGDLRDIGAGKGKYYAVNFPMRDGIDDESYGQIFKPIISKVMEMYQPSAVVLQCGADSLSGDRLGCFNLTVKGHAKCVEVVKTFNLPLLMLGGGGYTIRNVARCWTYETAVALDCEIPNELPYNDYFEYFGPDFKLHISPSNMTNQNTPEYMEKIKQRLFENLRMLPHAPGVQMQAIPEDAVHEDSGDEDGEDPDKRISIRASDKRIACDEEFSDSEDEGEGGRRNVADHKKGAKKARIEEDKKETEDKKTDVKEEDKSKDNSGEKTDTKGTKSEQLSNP
Test: Inhibition of human recombinant HDAC2 after 30 mins by fluorometric assay
Recorded IC50 values for a group of compounds are listed next.
Give the value; after it, write the unit.

// below: answered compounds
> print(dat)
                  compound.structure.string  result
1  O=C(/C=C/c1ccc2c(ccn2S(=O)(=O)c2ccc(F)cc2)c1)NO  199 nM
2  O=C(/C=C/c1ccc2c(ccn2S(=O)(=O)c2ccc([N+](=O)[O-])cc2)c1)NO  189 nM
3  COc1ccc(S(=O)(=O)n2ccc3cc(/C=C/C(=O)NO)ccc32)cc1OC  2.3 nM
4      O=C(/C=C/c1ccc2c(ccn2Cc2ccccc2)c1)NO  381 nM

Now examine the next entry.
Ask: Write down the reported IC50 of COc1ccc(S(=O)(=O)n2ccc3cc(/C=C/C(=O)NO)ccc32)cc1 , test system: UniProt:Q92769.
Result: 362 nM

----------
Test: AUC (0 to infinity) in Sprague-Dawley rat at 2 mg/kg, iv
Type: ADME, organism-based
Parameters: dose 2 mg/kg, route intravenous, time infinity
Details: plasma
QUANTITY_KIND: AUC(0-inf) (ng·h/mL)
Report the figure in ng·h/mL without appending any unit label.

Ask: Quick check: AUC(0-inf) of O=C(/C=C/c1ccc2c(ccn2S(=O)(=O)c2ccccc2)c1)NO ?
Result: 927

----------
Test: Oral bioavailability in Sprague-Dawley rat at 20 mg/kg
Assay type: ADME, organism-based
Conditions: in vivo
QUANTITY_KIND: bioavailability (%)
Report the figure in % without appending any unit label.

Ask: Quick check: bioavailability of O=C(/C=C/c1ccc2c(ccn2S(=O)(=O)c2ccccc2)c1)NO ?
Result: 10

----------
Test: Half life in Sprague-Dawley rat at 20 mg/kg, po
Format: ADME, organism-based
Set-up: dose 20 mg/kg, route oral
Conditions: in vivo
QUANTITY_KIND: half-life (h)
Report the figure in h without appending any unit label.

Ask: Quick check: half-life of O=C(/C=C/c1ccc2c(ccn2S(=O)(=O)c2ccccc2)c1)NO ?
Result: 5.5

----------
Molecular target: CYP2C9 (Homo sapiens, UniProt P11712)
Sequence (P11712 whole entry): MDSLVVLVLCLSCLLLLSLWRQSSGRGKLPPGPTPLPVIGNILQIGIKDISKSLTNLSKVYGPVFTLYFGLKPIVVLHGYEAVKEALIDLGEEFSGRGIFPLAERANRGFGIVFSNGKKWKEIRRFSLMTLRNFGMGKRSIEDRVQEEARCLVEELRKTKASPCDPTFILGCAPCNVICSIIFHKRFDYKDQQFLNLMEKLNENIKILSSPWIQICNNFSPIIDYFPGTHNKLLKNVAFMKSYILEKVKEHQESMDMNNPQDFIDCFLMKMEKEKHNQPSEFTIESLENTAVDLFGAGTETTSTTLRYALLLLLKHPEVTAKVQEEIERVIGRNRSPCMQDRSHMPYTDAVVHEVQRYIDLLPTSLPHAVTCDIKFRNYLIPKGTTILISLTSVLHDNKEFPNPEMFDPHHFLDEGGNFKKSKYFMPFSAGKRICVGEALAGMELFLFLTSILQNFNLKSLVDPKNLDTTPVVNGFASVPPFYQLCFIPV
Experiment: Inhibition of CYP2C9 at 10 uM
Format: ADME
QUANTITY_KIND: inhibition at 10 µM (%)
Report the figure in % without appending any unit label.

Ask: Quick check: inhibition at 10 µM of O=C(/C=C/c1ccc2c(ccn2S(=O)(=O)c2ccccc2)c1)NO ?
Result: 22

----------
Molecular target: CYP2C8 (Homo sapiens, UniProt P10632)
Sequence (P10632 whole entry): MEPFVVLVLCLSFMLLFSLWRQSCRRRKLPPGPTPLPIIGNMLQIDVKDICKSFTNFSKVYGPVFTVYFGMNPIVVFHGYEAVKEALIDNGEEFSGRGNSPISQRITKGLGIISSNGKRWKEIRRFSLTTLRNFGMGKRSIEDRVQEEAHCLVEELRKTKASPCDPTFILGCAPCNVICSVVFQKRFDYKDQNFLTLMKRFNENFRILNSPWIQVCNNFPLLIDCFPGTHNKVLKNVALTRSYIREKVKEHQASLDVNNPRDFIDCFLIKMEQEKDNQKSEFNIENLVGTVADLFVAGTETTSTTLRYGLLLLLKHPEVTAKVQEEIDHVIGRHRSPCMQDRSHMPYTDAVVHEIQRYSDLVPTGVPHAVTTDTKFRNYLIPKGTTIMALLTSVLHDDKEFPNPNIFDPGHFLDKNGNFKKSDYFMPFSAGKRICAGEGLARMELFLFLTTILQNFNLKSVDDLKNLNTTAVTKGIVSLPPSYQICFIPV
Test: Inhibition of CYP2C8 at 10 uM
Type: ADME
QUANTITY_KIND: inhibition at 10 µM (%)
Report the figure in % without appending any unit label.

Ask: Quick check: inhibition at 10 µM of O=C(/C=C/c1ccc2c(ccn2S(=O)(=O)c2ccccc2)c1)NO ?
Result: 78

----------
Experiment: Cmax in Sprague-Dawley rat at 20 mg/kg, po
Type: ADME, organism-based
Parameters: dose 20 mg/kg, route oral
Settings: in vivo
QUANTITY_KIND: Cmax (ng/mL)
Report the figure in ng/mL without appending any unit label.

Ask: Quick check: Cmax of O=C(/C=C/c1ccc2c(ccn2S(=O)(=O)c2ccccc2)c1)NO ?
Result: 217

----------
Assay: AUC (0 to infinity) in Sprague-Dawley rat at 20 mg/kg, po
Assay type: ADME, organism-based
Set-up: time infinity, dose 20 mg/kg, route oral
Details: plasma
QUANTITY_KIND: AUC(0-inf) (ng·h/mL)
Report the figure in ng·h/mL without appending any unit label.

Ask: Quick check: AUC(0-inf) of O=C(/C=C/c1ccc2c(ccn2S(=O)(=O)c2ccccc2)c1)NO ?
Result: 916

----------
Recorded IC50 values for a group of compounds are listed next.
Target: Histone deacetylase
Test: Inhibition of HDAC in human HeLa cell nuclear extract after 30 mins by fluorescence microplate reader
Format: protein assay
Report the figure in nM without appending any unit label.

> print(dat)
                  compound.structure.string      target.of.assay  quantity.kind  recorded.number
1  COc1ccc(S(=O)(=O)n2ccc3cc(/C=C/C(=O)NO)ccc32)cc1OC  Histone deacetylase           IC50              9.7

Ask: Quick check: IC50 of COc1ccc(S(=O)(=O)n2ccc3cc(/C=C/C(=O)NO)ccc32)cc1 ?
Result: 6.8

Ask: Continue with O=C(/C=C/c1cccc2c1ccn2S(=O)(=O)c1ccccc1)NO
Result: 170.9

----------
Recorded IC50 values for a group of compounds are listed next.
Target: Histone deacetylase
Assay: Inhibition of HDAC in human HeLa cell nuclear extract after 30 mins by fluorescence microplate reader
Assay type: protein assay

Ask: Quick check: IC50 of O=C(/C=C/c1cn(S(=O)(=O)c2ccccc2)c2ccccc12)NO ?
Result: > 1 µM

Ask: Continue with O=C(/C=C/c1cccc2ccn(S(=O)(=O)c3ccccc3)c12)NO
Result: > 1 µM

Ask: Continue with O=C(/C=C/c1ccc2[nH]ccc2c1)NO
Result: > 1 µM
